MEASURE: melting point

> print(dat)
                                   molecule        measure  endpoint.result
1                 CNc1nn2cc(-c3ccccc3)nc2s1  melting point           177 °C
2                         CC(=O)c1ccc(S)cc1  melting point            71 °C
3               CC(C)C[C@H](CC(N)=O)CC(=O)O  melting point    132 to 135 °C
4  N#Cc1ccc(-c2cc(C(=O)O)c(=O)n(Cc3ccccc3)n2)cc1  melting point    254 to 256 °C
5  O=C1N(CC2CCCO2)c2ccc(F)cc2C12COc1cc3c(cc12)CCO3 (stereo not given)  melting point    167 to 169 °C

Please supply the value of reported melting point for the item CCOc1nc2c(C(=O)OC)sc(C)c2[nH]1
209 to 210 °C

Give me measured melting point, please, for this molecule: O=C(O)CCc1cn(Cc2ccc3cc(OCc4cccnc4)ccc3c2)cc1-c1ccccc1
158 to 159 °C

Give reported melting point value for Cn1c(=O)[nH]c2nc(C(F)(F)F)n(Cc3ccccc3)c2c1=O
211 to 213 °C

Recall and state the measured melting point for OC(CNCc1ccccc1)C(c1ccccc1)c1ccccc1 (stereo not given) .
123 to 124 °C

Look up melting point of COc1cc2c(cc1OC)CN(CCCc1ccc(NC(=O)c3cccc4c(=O)c5cccc(C)c5[nH]c34)cc1)CC2 and report it.
120 °C
